Tested on: OVCAR-5
Experiment: NCI tumour cell line growth inhibition, 48 h
Calls of active or inactive are those of the source. No stated cut-off is given here; in the data, active = GI50 up to about 1.1 µM and inactive = higher. Residues, ends and D or L forms follow the SMILES beside them. *: point of attachment. Cbz = O=C(OCc1ccccc1)*
measurementKind: GI50

| compound | result |
| --- | --- |
| Cc1ccc(C(=O)C2CC3(CCC2(O)c2ccc(C)cc2)CC(=O)Nc2ccccc2C3=O)cc1 (centres undefined) | > 100 µM (inactive) |
| C/C(=N\Nc1nc2ccccc2n1C)c1ccncn1 | 1.52 µM (inactive) |
| CC(NC(=O)C(NC(=O)OCc1ccccc1)C(C)C)C(=O)NCC(=O)O (stereo not drawn) (Cbz-Val-Ala-Gly-OH; configuration not given here) | > 100 µM (inactive) |
| CC(=O)c1c2c(cc3c1CC1(Cc4cc5c(cc4C1)CCCC5)C3)CCCC2 | > 100 µM (inactive) |
| CC(=O)OC(C)(C)/N=N/c1ccc(Br)cc1 | 1.66 µM (inactive) |
| Sc1nnc(-c2ccccc2)n1/N=C\c1ccc(-c2ccc(Cl)cc2)o1 | > 100 µM (inactive) |

Read the entry CCOC(=O)[C@H]1Nc2c(cccc2[N+](=O)[O-])[C@H]2OCC[C@@H]12 and write its reported GI50.
> 100 µM (inactive)

Return reported GI50. Input compound: Cc1ccc(S(=O)(=O)n2c(-c3ccccc3)c(-c3ccccc3)c3ccccc32)cc1
> 100 µM (inactive)

// Input: C/C(=C\c1ccccc1)C(=O)NCc1ccc(C(=O)NCCc2ccccc2)cc1 . Output its GI50 only.
> 96.2 µM (inactive)

Give a short answer stating reported GI50 for COc1cc2c[n+](C)c3c4cc(OC)c(OC)cc4c(OCc4ccccc4)cc3c2cc1OC .
> 100 µM (inactive)

Recall and state the measured GI50 for N=C(N)c1ccc(/N=N/c2c(O)ccc3cc(O)ccc23)cc1 .
> 100 µM (inactive)

Give the measured GI50 for C[C@]12C[C@H](O)[C@H]3[C@@H](CCC4=CC(=O)CC[C@@]43C)[C@@H]1CC[C@@H]2c1csc(-c2ccccc2)n1
> 100 µM (inactive)

Give recorded GI50. C=C1C[C@@H]2O[C@H]3[C@H]4[C@@H](C[C@@H](C)[C@@H](OC(C)=O)[C@H]42)[C@@H](C)CO[C@@]3(C)[C@H](OC(=O)CCCCCCC)C[C@H]1O
17.5 µM (inactive)

Let me know recorded GI50 for O=C1O/C(=C\c2ccccc2)N(c2ccccc2)C1=O , thanks.
> 100 µM (inactive)

Answer with the recorded GI50 of COc1cc(-c2cc(=O)c3cc(C)c(C)c(C(=O)O)c3o2)cc(OC)c1OC only.
> 100 µM (inactive)
